The reported measurements were obtained from patent US4327114A.

Assay: Acute toxicity in the mouse
Format: in vivo
Conditions: in vivo, ip, within 14 days
Protocol: The acute toxicity was determined in the mouse and in the rat. Determined was the LD50, i.e. the dose after administration of which 50% of the animals died within 14 days, or it was determined how many of the 10 treated animals died within the period of observation.
result-type: LD50 at 336 h (mg/kg)
Just the number in mg/kg, nothing appended.

Request: Which LD50 at 336 h is reported for this compound? O=C1c2c(O)cccc2Cc2cccc(O)c21 [Compound A, 1,8-Dihydroxy-9-(10H)anthracenone]
Result: 2.42

Request: May I ask what LD50 at 336 h has been recorded for CC(C)c1ccc(O)c2c1Cc1cccc(O)c1C2=O ?
Result: 52

* * *

System: skin of guinea pigs
Assay: Skin compatibility test on guinea pigs
Assay type: in vivo, guinea pig (Perbright White strain)
Conditions: 0.03%, end of 3rd week; score 0 no irritation to 3 very strong erythema
Task for the reader: assign each of the following molecules its reported Sum of the reactions divided by the number of animals.
API note: the answer field is a bare number with no unit suffix.

Request: For O=C1c2c(O)cccc2Cc2cccc(O)c21 [Compound A, 1,8-Dihydroxy-9-(10H)anthracenone] , what is its reported Sum of the reactions divided by the number of animals?
Result: 2.25

Request: Entry CC(C)(C)c1ccc2c(c1O)C(=O)c1c(O)cccc1C2 has what Sum of the reactions divided by the number of animals?
Result: 0.00

Request: Reported Sum of the reactions divided by the number of animals, molecule CC(C)(C)c1ccc2c(c1O)C(=O)c1c(ccc(C(C)(C)C)c1O)C2 : ____
Result: 0.00

Request: Can you look up the measured Sum of the reactions divided by the number of animals of O=C1c2c(O)ccc(Cl)c2Cc2c(Cl)ccc(O)c21 for me?
Result: 0.04

* * *

Answer each item with its documented LD50 at 336 h.
Assay: Acute toxicity in the rat
Assay type: in vivo
Settings: in vivo, ip, within 14 days
Could you give me the number in mg/kg? Just the number is fine.

Request: Can you look up the measured LD50 at 336 h of O=C1c2c(O)cccc2Cc2cccc(O)c21 [Compound A, 1,8-Dihydroxy-9-(10H)anthracenone] for me?
Result: 5.19

Request: Dear colleague, I am looking for the recorded LD50 at 336 h of the following molecule: CC(C)c1ccc(O)c2c1Cc1cccc(O)c1C2=O
Result: 45

* * *

Molecular target: glucose-6-phosphate-dihydrogenase
Test: Inhibition of glucose-6-phosphate-dihydrogenase after 120 minutes incubation
Type: biochemical
Conditions: 37° C., pH 7.6, REED and MUENCH
Procedure: The inhibiting effect upon enzymes was determined by measurement of the inhibition of glucose-6-phosphate-dihydrogenase. The following equilibrium was observed: [drawing 5] (NADP-nicotinamide-adenine-dinucleotide-phosphate). The rate of formation of NADPH is a measure of the enzyme activity; it can be measured by means of the increase in extinction at […] per unit of time. 0.025 ml of glucose-6-phosphate-dihydrogenase were diluted to 10 ml with distilled water (Solution I). […]
With a cut-off of 5 µg/mL, any ED50, inhibition of incubation after 120 minutes strictly below it is called yes; any ED50, inhibition of incubation after 120 minutes meeting it or above is called no.

Request: Identify whether the compound CC(C)c1ccc(O)c2c1Cc1cccc(O)c1C2=O records ED50, inhibition of incubation after 120 minutes below 5 µg/mL.
Result: no

Request: Problem: For the compound CC(C)(C)c1ccc2c(c1O)C(=O)c1c(ccc(C(C)(C)C)c1O)C2 , is ED50, inhibition of incubation after 120 minutes under 5 µg/mL?
Result: no

Request: API: query returns whether the compound falls strictly under 5 µg/mL in ED50, inhibition of incubation after 120 minutes. Query: O=C1c2c(O)ccc(Cl)c2Cc2c(Cl)ccc(O)c21
Result: yes

Request: Given the entry Cc1cc(O)c2c(c1)Cc1cccc(O)c1C2=O [Compound B, reference compound] , would its reported ED50, inhibition of incubation after 120 minutes be below 5 µg/mL?
Result: no

Request: Please indicate whether the reported ED50, inhibition of incubation after 120 minutes of CCCCC(C)c1ccc2c(c1O)C(=O)c1c(O)cccc1C2 (stereo not drawn) is strictly below 5 µg/mL.
Result: yes

Request: Is the reported ED50, inhibition of incubation after 120 minutes for CC(C)(C)c1ccc2c(c1O)C(=O)c1c(O)cccc1C2 strictly below 5 µg/mL?
Result: no

Request: Hello, is ED50, inhibition of incubation after 120 minutes of the following compound strictly smaller than 5 µg/mL? O=C1c2c(O)cccc2Cc2c(Cl)ccc(O)c21
Result: yes

Request: In the record for CC(C)c1cc(C(C)C)c2c(c1O)C(=O)c1c(O)cccc1C2 , is ED50, inhibition of incubation after 120 minutes less than 5 µg/mL?
Result: no

Request: Please indicate whether the reported ED50, inhibition of incubation after 120 minutes of O=C1c2c(O)cccc2Cc2ccc(C3CCCCC3)c(O)c21 is strictly below 5 µg/mL.
Result: yes

* * *

Tested on: skin of guinea pigs
Experiment: Skin compatibility test on guinea pigs
Assay type: in vivo, guinea pig (Perbright White strain)
Conditions: 0.03%, end of 1st week; score 0 no irritation to 3 very strong erythema
Exercise: for every item that follows, state its recorded Sum of the reactions divided by the number of animals.
Form: value (number only, do not type unit).

Request: // returns reported Sum of the reactions divided by the number of animals for input CC(C)(C)c1ccc2c(c1O)C(=O)c1c(ccc(C(C)(C)C)c1O)C2
Result: 0.00

Request: Endpoint output: Sum of the reactions divided by the number of animals of O=C1c2c(O)ccc(Cl)c2Cc2c(Cl)ccc(O)c21 . Value?
Result: 0

Request: Entry CC(C)(C)c1ccc2c(c1O)C(=O)c1c(O)cccc1C2 has what Sum of the reactions divided by the number of animals?
Result: 0.083

Request: // returns reported Sum of the reactions divided by the number of animals for input O=C1c2c(O)cccc2Cc2cccc(O)c21 [Compound A, 1,8-Dihydroxy-9-(10H)anthracenone]
Result: 1.3
